Numbers sourced from patent US8124637B2.

# protocol description: MTT assay (relative cell survival), H1299
# reported conditions: human, H1299 non-small cell lung cancer cells (PhTERT-SEAP), Relative MTT viability (%), 100 μM
measured property: viability at 72 h, 100 µM

O=C1c2ccccc2C(=O)c2c1ccc1nc(CCCl)[nH]c21 [CL35]    > 40%

Ask: Report viability at 72 h, 100 µM for CC1CCN(Cc2nc3ccc4c(c3[nH]2)C(=O)c2ccccc2C4=O)CC1 [CL17] please.
Result: > 40%

Ask: Fill blank: measured viability at 72 h, 100 µM of the compound O=C1c2ccccc2C(=O)c2c1ccc1nc(CCN3CCN(c4ccccn4)CC3)[nH]c21 [CL38] is ____.
Result: > 40%
